Origin of the recorded values: PubChem BioAssay

Target: Torsin-1A (Homo sapiens)
Assay: small-molecule binders of mutant TOR1A in lysate, primary screen, cell lysate, small-molecule microarray, COS7 lysate, 635/667 nm fluorescence (AID 1150);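 further: score pools 667 nm emission and signal to noise measuring lysate protein binding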
Details: COS7 hTOR1A mutant lysate, 635 nm fluorescence, higher = more signal
Entries annotated with measured composite z-score

Before answering, review these 2 worked examples.
- molecule: "CCOC(=O)C[C@H]1[C@H](OC(=O)c2ccc(-c3ccccc3)cc2)[C@@H](NC(=O)c2ccc(-c3ccccc3)cc2)c2cc(OCCCO)ccc2N1C(=O)c1ccccc1"
  composite z-score: 0.987
- molecule: "Cc1ccc(S[C@]2(C(=O)NC(C)C)CC(=O)N(Cc3ccccc3)[C@@H]2c2ccc(CO)cc2)cc1"
  composite z-score: -1.5

Record request: composite z-score value, item O=C1NC(=O)C2C1C=CC(C(O)c1ccc(F)cc1)N2Nc1ccc(Cl)cc1Cl (configuration not stated)
-0.348

Which composite z-score is reported for this molecule? COC(=O)[C@@]1(Cc2ccc(F)cc2)[C@H]2c3cc(C(=O)N4CCCC4)n(Cc4ccc(OC(F)(F)F)cc4)c3C[C@H]2CN1C(=O)c1ccccc1
0.395
